- measured-target: Insulin-degrading enzyme (Homo sapiens)
- assay-notes: fluorescent artefact check on IDE activity – biochemical, fluorogenic FRET1 peptide, fluorescence, powder samples, artefact control for IDE inhibitor project, late-stage follow-up (AID 624066)
- cond: recombinant IDE
The source made the active and inactive calls.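 The calls were made as follows: active = IC50 of 10 µM or lower; inactive = IC50 above 10 µM.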
Lab note: assign the record to one of yes (1) for active, no (0) for inactive

# count of solved cases: 3
>>> class_name("Cc1ccc(NC(=O)CSc2nnc(-c3cccc(Cl)c3)n2Cc2ccco2)c(C)c1")
"no (0)"
>>> class_name("Clc1cccc(-c2nnc(SCc3nc4ccccc4[nH]3)n2-c2ccccc2)c1")
"no (0)"
>>> class_name("CC(Sc1nnc(-c2cccnc2)n1-c1ccccc1F)C(=O)N1CCCc2ccccc21 (stereo not given)")
"no (0)"

Attention now turns to another entry.
## Task Please state the recorded outcome for this molecule: O=C(c1ccc2c(c1)OCO2)N1CCCN(C(=O)C2CCc3ccccc3O2)CC1 (stereo not given)
## Result no (0)

Data credit: PubChem BioAssay AID624066
